Values compiled from ChEMBL document CHEMBL4020828.

tested on: Staphylococcus saprophyticus; experiment: Antibacterial activity against Staphylococcus saprophyticus ATCC 49453 after 24 hrs; format: functional; details: ATCC 49453, 24 h
Positions of bridges follow the written chain, without caps; N, C: chain ends. Non-standard residues stand in square brackets, D forms with d. Residues, ends and D or L forms follow the SMILES beside them. dNMeF = CN[C@H](Cc1ccccc1)C(=O)O
measure name: MIC

compound	MIC
CC[C@@H](C)[C@@H](NC(=O)[C@@H](CCC(N)=O)NC(=O)[C@H](CCCNC(=N)N)NC(=O)[C@@H](NC(=O)[C@@H](Cc1ccccc1)NC)[C@@H](C)CC)C(=O)N[C@H](C(=O)N[C@@H](CO)C(=O)N[C@H]1C(=O)N[C@@H](C)C(=O)N[C@@H](CC(C)C)C(=O)N[C@@H]([C@@H](C)CC)C(=O)O[C@H]1C)[C@@H](C)CC (H-[dNMeF]IR[dQ][dI]IS[dT]ALI; ester 8-C)	< 0.0625 µg/mL

Query block: Requested field: MIC. Item: "CC[C@@H](C)[C@@H](NC(=O)[C@@H](CCCNC(=N)N)NC(=O)[C@H](CO)NC(=O)[C@@H](NC(=O)[C@@H](Cc1ccccc1)NC)[C@@H](C)CC)C(=O)N[C@H](C(=O)N[C@@H](CO)C(=O)N[C@H]1C(=O)N[C@@H](C)C(=O)N[C@@H](CC(C)C)C(=O)N[C@@H]([C@@H](C)CC)C(=O)O[C@H]1C)[C@@H](C)CC"
Result block: < 0.0625 µg/mL

----------
test: Cytotoxicity against human primary HDF assessed as cell viability at 15.62 to 250 ug/ml after 24 hrs by MTS assay relative to control; format: cell-based; conditions: primary HDF cells, read-out: Activity
measure name: viability at 24 h

Query block: Requested field: viability at 24 h. Item: "CC[C@@H](C)[C@@H](NC(=O)[C@@H](CCCNC(=N)N)NC(=O)[C@H](CO)NC(=O)[C@@H](NC(=O)[C@@H](Cc1ccccc1)NC)[C@@H](C)CC)C(=O)N[C@H](C(=O)N[C@@H](CO)C(=O)N[C@H]1C(=O)N[C@@H](C)C(=O)N[C@@H](CC(C)C)C(=O)N[C@@H]([C@@H](C)CC)C(=O)O[C@H]1C)[C@@H](C)CC"
Result block: ≥ 80%

----------
Some compounds, each annotated with its measured MIC.
test system: Staphylococcus epidermidis; assay: Antibacterial activity against Staphylococcus epidermidis 12228 after 24 hrs; format: functional; details: Staphylococcus epidermidis, 12228, 24 h
Positions of bridges follow the written chain, without caps; N, C: chain ends. Non-standard residues stand in square brackets, D forms with d. Residues, ends and D or L forms follow the SMILES beside them. dNMeF = CN[C@H](Cc1ccccc1)C(=O)O

compound	target entity	MIC
CC[C@@H](C)[C@@H](NC(=O)[C@@H](CCCNC(=N)N)NC(=O)[C@H](CCCNC(=N)N)NC(=O)[C@@H](NC(=O)[C@@H](Cc1ccccc1)NC)[C@@H](C)CC)C(=O)N[C@H](C(=O)N[C@@H](CO)C(=O)N[C@H]1C(=O)N[C@@H](CCCNC(=N)N)C(=O)N[C@@H](CC(C)C)C(=O)N[C@@H]([C@@H](C)CC)C(=O)O[C@H]1C)[C@@H](C)CC (H-[dNMeF]IR[dR][dI]IS[dT]RLI; ester 8-C)	Staphylococcus epidermidis	< 0.0625 µg/mL

Moving on to the next compound.
Query block: Requested field: MIC. Item: "CC[C@@H](C)[C@@H](NC(=O)[C@@H](CCC(N)=O)NC(=O)[C@H](CO)NC(=O)[C@@H](NC(=O)[C@@H](Cc1ccccc1)NC)[C@@H](C)CC)C(=O)N[C@H](C(=O)N[C@@H](CO)C(=O)N[C@H]1C(=O)N[C@@H](CCCNC(=N)N)C(=O)N[C@@H]([C@@H](C)CC)C(=O)N[C@@H]([C@@H](C)CC)C(=O)O[C@H]1C)[C@@H](C)CC"
Result block: < 0.0625 µg/mL
